Recorded log10 b-arrestin2 EC50 by entry
- experimental target: rat angiotensin 2 type 1 receptor (rat) (UniProt P25095)
- Sequence (P25095 whole entry): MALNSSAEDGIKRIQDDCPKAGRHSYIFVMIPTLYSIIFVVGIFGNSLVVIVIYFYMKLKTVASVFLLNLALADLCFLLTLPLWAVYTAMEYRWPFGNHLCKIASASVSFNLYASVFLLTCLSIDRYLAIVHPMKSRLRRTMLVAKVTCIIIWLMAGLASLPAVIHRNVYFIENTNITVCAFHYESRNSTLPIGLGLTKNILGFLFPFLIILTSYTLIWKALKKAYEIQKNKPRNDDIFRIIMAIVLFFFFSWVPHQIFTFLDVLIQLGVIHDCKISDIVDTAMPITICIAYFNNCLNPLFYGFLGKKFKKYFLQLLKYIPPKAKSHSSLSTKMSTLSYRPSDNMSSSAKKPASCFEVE
- assay comment: cell-based or functional assay
Where no end group is shown, it is not given here.
recorded metric: log10 b-arrestin2 EC50 (log10 of the value in nM)

binder: RVYYHPI (N-terminal Sar; C-terminal acid) [SEQ ID NO: 14 (Sar-Arg-Val-Tyr-Tyr-His-Pro-Ile-OH)]
measured value: 1.15
//
binder: RVYVHPI (N-terminal Sar; C-terminal amide) [SEQ ID NO: 12 (Sar-Arg-Val-Tyr-Val-His-Pro-Ile-NH2)]
measured value: 2.08
//
binder: RVYFHPA (N-terminal Sar; C-terminal acid) [SEQ ID NO: 21 (Sar-Arg-Val-Tyr-Phe-His-Pro-Ala-OH)]
measured value: 1.11
//
binder: ARVYVHPA (N-methyl residue; C-terminal acid) [SEQ ID NO: 33 (NMAla-Arg-Val-Tyr-Val-His-Pro-Ala-OH)]
measured value: 1.49
//
binder: RVYEHPI (N-terminal Sar; C-terminal acid) [SEQ ID NO: 16 (Sar-Arg-Val-Tyr-Glu-His-Pro-Ile-OH)]
measured value: 2.15
//
binder: RVYIHPRVYIHPRVYIHP (cyclic) [SEQ ID NO: 36 (Cyclo(Arg-Val-Tyr-Ile-His-Pro-Arg-Val-Tyr-Ile-His-Pro-Arg-Val-Tyr-Ile-His-Pro))]
measured value: 3.28
//
binder: RVYHHPA (N-terminal Sar; C-terminal acid) [SEQ ID NO: 22 (Sar-Arg-Val-Tyr-His-His-Pro-Ala-OH)]
measured value: 1.43
//
binder: RVYYHPI (N-terminal Sar; C-terminal amide) [SEQ ID NO: 15 (Sar-Arg-Val-Tyr-Tyr-His-Pro-Ile-NH2)]
measured value: 2.36
//
binder: FVYIHPFVYIHPFVYIHP (cyclic) [SEQ ID NO: 37 (Cyclo(Phe-Val-Tyr-Ile-His-Pro-Phe-Val-Tyr-Ile-His-Pro-Phe-Val-Tyr-Ile-His-Pro))]
measured value: 3.28
//
binder: DRVYFHP-NH2 [SEQ ID NO: 63 (Asp-Arg-Val-Tyr-Phe-His-Pro-NH2)]
measured value: 2.72
//
binder: RVYEHPA (N-terminal Sar; C-terminal acid) [SEQ ID NO: 20 (Sar-Arg-Val-Tyr-Glu-His-Pro-Ala-OH)]
measured value: 3.56
//
binder: RVYIHP-NH2 [SEQ ID NO: 13 (Arg-Val-Tyr-Ile-His-Pro-NH2)]
measured value: 4.63
//
binder: RVYYHP (N-terminal Sar; C-terminal D-Phe) [SEQ ID NO: 28 (Sar-Arg-Val-Tyr-Tyr-His-Pro-D-Phe-OH)]
measured value: 1.28
//
binder: ERVYYHP (D-residue; C-terminal amide) [SEQ ID NO: 60 (D-Glu-Arg-Val-Tyr-Tyr-His-Pro-NH2)]
measured value: 2.26
//
binder: RVYKHPA (N-terminal Sar; C-terminal acid) [SEQ ID NO: 23 (Sar-Arg-Val-Tyr-Lys-His-Pro-Ala-OH)]
measured value: 1.59
//
binder: RVYVHPA (N-terminal Me2Gly; C-terminal acid) [SEQ ID NO: 31 (Me2G-Arg-Val-Tyr-Val-His-Pro-Ala-OH)]
measured value: 1.57
//
binder: DRVYYHP (D-residue; C-terminal amide) [SEQ ID NO: 58 (D-Asp-Arg-Val-Tyr-Tyr-His-Pro-NH2)]
measured value: 2.41
//
binder: DRVYYHP (N-methyl; C-terminal amide) [SEQ ID NO: 61 (N-Me-Asp-Arg-Val-Tyr-Tyr-His-Pro-NH2)]
measured value: 3.32
//
binder: DRVYYHP-NH2 [SEQ ID NO: 57 (Asp-Arg-Val-Tyr-Tyr-His-Pro-NH2)]
measured value: 2.65
//
binder: RVYYHPA (N-terminal Sar; C-terminal acid) [SEQ ID NO: 19 (Sar-Arg-Val-Tyr-Tyr-His-Pro-Ala-OH)]
measured value: 1.26
//
binder: RVYVHPI (N-terminal Sar; C-terminal acid) [SEQ ID NO: 11 (Sar-Arg-Val-Tyr-Val-His-Pro-Ile-OH)]
measured value: 0.79
//
binder: RVYRHPA (N-terminal Sar; C-terminal acid) [SEQ ID NO: 24 (Sar-Arg-Val-Tyr-Arg-His-Pro-Ala-OH)]
measured value: 1.80
//
binder: RVYYHP (N-terminal Sar; C-terminal amide) [SEQ ID NO: 26 (Sar-Arg-Val-Tyr-Tyr-His-Pro-NH2)]
measured value: 1.58
//
binder: ARVYIHPA (N-methyl residue; C-terminal acid) [SEQ ID NO: 34 (NMAla-Arg-Val-Tyr-Ile-His-Pro-Ala-OH)]
measured value: 1.51
//
binder: VYIHPF (cyclic) [SEQ ID NO: 38 (Cyclo(Val-Tyr-Ile-His-Pro-Phe))]
measured value: 3.40
//
binder: RVYIHP (N-terminal Sar; C-terminal norvaline) [SEQ ID NO: 35 (Sar-Arg-Val-Tyr-Ile-His-Pro-NVA-OH)]
measured value: 0.97
//
binder: ERVYYHP (N-methyl; C-terminal amide) [SEQ ID NO: 62 (N-Me-Glu-Arg-Val-Tyr-Tyr-His-Pro-NH2)]
measured value: 3.59
//
binder: ERVYYHP-NH2 [SEQ ID NO: 59 (Glu-Arg-Val-Tyr-Tyr-His-Pro-NH2)]
measured value: 2.91
